- assay procedure: folding stability dG unfold (combined trypsin and chymotrypsin); higher = more stable
parameter measured: folding stability dG unfold (kcal/mol)
Write down the numeric answer in kcal/mol and omit the unit.

Before answering, review these 2 worked examples.
record sequence	recorded result
SAGGSAGGYVEVTIMIPPDDLDEIKEIAEPFGFTSVETERVPDNPMVVVKIEVKIPKEDDKDNKSAGGSAGG [r6_273_TrROS]	-0.139
SAGGSAGGDALKELIKNMPPGEPRKITIPIKYEDGRYYRIDIEIQMNPNNGEWQLDIDIEPYPPSAGGSAGG [r6_545_TrROS]	1.91

// moving on: another record for folding stability dG unfold
Memo: SAGGSAGGSAGIDPPDIKLRVESELGPGPVRRLLVYLEGPGELVLVDVPADGSVSVSIFPSAGGSAGGSAGG [r11_55_TrMRF] , reported folding stability dG unfold: 2.9
